Test: yeast display, Sf9 membrane polyspecificity reagent, FACS + sequencing; frameworks hold sequencing errors
property.measured: polyreactivity (PSR sort gate)

record_sequence=QVQLVESGGGLVQAGGSLRLSCAASGFTFRRYAMGWYRQAPGKERELVAGITGRGGSTYYADSVKGRFTISRDNSKNTVYLQMNSLKPEDTAVYYCNKPRAARGYLTGQLDYWGQGTQVTVSS result="high polyreactivity"
record_sequence=QVQLVESGGGLVQAGGSLRLSCAASGRIFSRYAMGWYRQAPGKERELVAAISRNGGSTYYADSVKGRFTISRDNAKNTVYLQMNSLKPEDTAVYYCNARGNQAVNGYEYWGQGTQVTVSS result="high polyreactivity"
record_sequence=QVQLVESGGGLVQAGGSLRLSCAASGFTFRIYTMGWYRQAPGKERELVAAISSRGGSTYYADSVKGRFTISRDNAKNTVDLQMNSLKPEDTAVYYCAASGRVYSSGYDYWGQGTQVTVSS result="high polyreactivity"
record_sequence=QVQLVESGGGLVQAGGSLRLSCAASGFTFGTYAMGWYRQAPGKERELVARITSGGRTNYADSVKGRFTISRDNAKNTVYLQMNSLKPEDTAVFYCNAVNGYYWGSRFDYWGQGTQVTVSS result="high polyreactivity"

---

Test: yeast display, Sf9 membrane polyspecificity reagent, FACS + sequencing; frameworks hold sequencing errors
property.measured: polyreactivity (PSR sort gate)

record_sequence=QVELVESGGGLVQAGGSLRLSCAASGYIFNYYAMGWYRQAPGKERELVAAISTSGGSTYYADSVKGRFTISRDNAKNTVYLQMNSLKPEDTAVYYCAAVDYKANGYGYWGQGTQVTVSS result="high polyreactivity"
record_sequence=QVQLVESGGGLVQAGGSLRLSCAASGYTFDQYAMGWYRQAPGKERELVAGIDSAGSTYYADSVKGRFTISRDNAKITVYLQMNSLKPEDTAVYYCNADDLNTEVPYYYWGQGTQVTGSS result="low polyreactivity"
record_sequence=QVQLLESGGGLVQAGGSLRLSFAASGLTLGAYAMVWYRQAPGKERELVAAITNGGSTDYADSVKGRFTISRDNAKITVYLQMNSLKPEDTAVYYCAKDISRPDRGMDYWGQGTQVTVSS result="low polyreactivity"
record_sequence=QVQLVESGGGLVQAGGSLRLSCAASGSIFRPYAMGWYRQAPGKEMELVAAISSSGGSTYYADSVKGRFTISRDNAKNTVYLQMNSLKPEDTAVYYCAAESRSTWIHSRDYWGQGTQVTVSS result="low polyreactivity"
record_sequence=QVQLVESGGGLVQAGGSLRLSCAASGSIFYGYTMGWSRQAPGKEREFVAAITGSGGSTYYADSVKGRFTISRDTPKNTVYVQMNTLKPEDTAVYYCAARRYVNRRYDYWGQGTQVTVSS result="high polyreactivity"
record_sequence=QVQLVESGGGLVQAGGSLRLSCAASGFTFYYYPMGWYRQAPGKERELVAAITWRGGSTNYADSVKGRFTISRDNAKNTVYLLMISLKPEDTAVYYCAAVTYWFWPGMDYWGQGTQVTVSS result="low polyreactivity"
record_sequence=QVQLVESGGGLVQAGGSLRLSCAASGSTFTQYVMGWYRQAPGKERDLVAAISDSGSTYYADSVKGRFTISRDNAKNTVYLQMNRLKPEDTAVYFCNADDVDFYYGYGYLDYDYWGQGTQVTVSS result="low polyreactivity"
record_sequence=QVQLVETGGGLVQAGGSLRLSCAASGSTFQLYAMGWYRQAPGKERDFVAAISNGGRTNYADSVKGRFTISRDNAKNTVYLQMTSLKPEDTAVYYCNADQVWWSFDRVLVGYEYWGKGTQVTVSS result="low polyreactivity"
record_sequence=QVQLVESGGGLVQAGGSLRLSCAASGRIFYAYAMGWYRQAPGTERELVAAISSGGSTKYADSVKGRFTISRDNAKNTVYLQMNSLKPEDTAVYYCNADATAQSFGSLFDYWGLGTQVTVSS result="low polyreactivity"
record_sequence=QVQLVESGGGLVQAGGSLRLSCAASGSTFCINAMGWYRQAPGKERDLVAAISSRGGSTYYADSVKGRFTISRDNAKNTVYLQMNSLKPEDTAVYYCAAEFAVSFYWSWLGQDYNYWGQGTQVTVSS result="high polyreactivity"
record_sequence=QVQLVESGGGLVQAGGSLRLSCAPSGRMFVFYTMGWYRPAPGKESELVAYINSGGSTYYADSVKGRFTISRDNAKNSVYLQMNSLKPEDTAVYYCAAGPCRGPDSRWRYKYDYWGQGTQVTVSS result="high polyreactivity"
record_sequence=HVQLVESGGGLVQAGGSLRLSCAASGFTFRLYAMGWYRQAPGKERELVAAINWGGGSTRYADSVKGRFTISRDNAKNTVYLQMNSLKPEDTAVYYCAARRFAYYFQYLGGGYWGQGTQVTVSS result="high polyreactivity"
record_sequence=QVQLVESGGGLVQAGGSLRLSCAASGRISLFNAMGWYRQAPGKERELVAAITYTGGSTYYADSVKGRFTISRDNAKNTVYLQMNSLKPEDTAVYYCAAEYYYVYTYDYWGQGTQVTVSS result="high polyreactivity"
record_sequence=QVQLVESGGGLVQAGGSLRLSCAASGLIFPLYAMGWYRHAPGKERELVAAITSSGGSTYYADSVKGRFTISRDNAKNTVYLQMNSLKPEDTAVYYCAADYSVYWLDYGYWGQGTQVTVSS result="low polyreactivity"
record_sequence=QVQLVESGGGLVQAGGSLRLSCAASGRTFRWYPMGWYRHAPGKEREFVARITWSGGRTYYADSVKGRFTISRDNAKNTVYLQMNSLKPEDTADYYCAAYFVGRYRLEYWGQGTQVTVSS result="high polyreactivity"
record_sequence=QVQLVESGGGLVQAGGSLRLSCAASGANFGRNDMGWYRQAPGKERELVAAISWSGGRTYYADSVKGRFTISRDNAKNTVYLQMISLKPEDTAVYYCNRDYYVGRYDYWGQGTQVTVSS result="high polyreactivity"
record_sequence=QVQLVESGGGLVQAGGSLRLSCAASGSIFSYYAMGWYRQAPGKERELVAAITTSGGSTYYADSVKGRFTISRDNAKNTVYLQMNSLKPEDTAVYYCNAGPYWWYYGEDYWGQGSQVTVSS result="low polyreactivity"
record_sequence=QVQLVESGGGLVQAGGSLRLSWAASGRIPYNAMGWYRQAPGKERELVAAISRSGTRTYYADSVKGRFTISRDNAKNTVFFQMNSLKPEDTAVYYCAAEYTRSFYIYYRFGYWVQGTQVTVSS result="high polyreactivity"
record_sequence=QVHLVESGGGLVQAGGSLRLTCAASGSTFDINAMRWYRQAPGKERELVASITFSGGSTYYADSVKGRFTISRDNAKNTVYLQMNSLKPEDTAVYYCAADSSGEYPGGYWGQGTQVTVSS result="low polyreactivity"
record_sequence=QVQLVESGGGLLQAGGSLRLSCAASGRIFHYYAMGWYRQAPGKERELVAGIETSGGSTYYADSVNWRFTISRDNAKNTVYLKLNSLKPEDTAVYYCATDQYYSYDYVYWGQGTQVTVSS result="low polyreactivity"
record_sequence=QVQIVESGGGLLQAGGSLRLSCAASGGIFGRYAMGWYRQAPGKERELVAAITTRGTSTYYADSVKGRFTISRDNAMNTVYLQMNSLKPEDTAVYYCSAAYGRHPSSGSWGQGTQVTVSS result="high polyreactivity"

Reference source: the nanobody polyreactivity screen of Harvey et al. (2022)
